# Species on record: Homo sapiens
# protocolSummary: Selectivity ratio of MEC for TLR8-mediated TNFalpha production in human PBMC to MEC for TLR7-mediated IFNalpha production in human PBMC
experimentalEndpoint: Ratio

IN: Field request: Ratio | item: "CCCCOc1cc2c([nH]c(=O)c(=O)n2Cc2ccc(-c3cccc(CN4CCCC4)c3)cc2)c(N)n1"
OUT: 3

[A] CCCCOc1nc(N)c2c(n1)N(Cc1ccc3c(c1)CN(C(C)C)CC3)CC(=O)N2
[B] CCCCOc1nc(N)c2c(n1)N(Cc1ccc3c(c1)CCN(C(C)C)C3)CC(=O)N2
[C] CC(C)COc1nc(N)c2c(n1)N(Cc1cccc(CN3CCCC3)c1)CC(=O)N2
[D] CCCCNc1nc(N)c2[nH]c(=O)c(=O)n(Cc3cccc(CN4CCCC4)c3)c2n1
IN: Please produce an ascending ranking of these molecules based on Ratio. Please express your ranking as an ordered list of the labels.
OUT: C, A, B, D

---

# protocolSummary: Half life in monkey liver microsomes
# Assay type: ADME, Macaca mulatta, Microsome
# cond: rhesus monkey
experimentalEndpoint: half-life (min)
Express the result in min but write the number alone.

IN: For the compound "CCCCOc1nc(N)c2c(n1)N(Cc1cccc(CN3CCCC3)c1)CC(=O)N2" , what half-life is on record?
OUT: 5.9

---

# protocolSummary: Cmax in cynomolgus monkey at 0.1 mg/kg, iv
# Format: ADME, organism-based, Macaca fascicularis
# Parameters: dose 0.1 mg/kg, route intravenous
# cond: in vivo
experimentalEndpoint: Cmax (ng/mL)
Answer in ng/mL, number only, no unit symbol.

IN: Which Cmax value belongs to "CCCCOc1nc(N)c2c(n1)N(Cc1cccc(CN3CCCC3)c1)CC(=O)N2" ?
OUT: 128

---

# protocolSummary: Half life in rat liver microsomes
# Format: ADME, Microsome
experimentalEndpoint: half-life (min)
Provide the reading as a plain figure in min.

IN: Record request: half-life value, item "CCCCOc1nc(N)c2c(n1)N(Cc1cccc(CN3CCCC3)c1)CC(=O)N2"
OUT: 5.4

---

# protocolSummary: Half life in mouse liver microsomes
# Assay type: ADME, Microsome
experimentalEndpoint: half-life (min)
Numeric only. Scale: min

IN: Quick one: half-life of "CCCCOc1nc(N)c2c(n1)N(Cc1cccc(CN3CCCC3)c1)CC(=O)N2" ?
OUT: 4.9

---

# targetEntity: Toll-like receptor 7 (Homo sapiens) (UniProt Q9NYK1)
# Sequence (Q9NYK1 whole entry): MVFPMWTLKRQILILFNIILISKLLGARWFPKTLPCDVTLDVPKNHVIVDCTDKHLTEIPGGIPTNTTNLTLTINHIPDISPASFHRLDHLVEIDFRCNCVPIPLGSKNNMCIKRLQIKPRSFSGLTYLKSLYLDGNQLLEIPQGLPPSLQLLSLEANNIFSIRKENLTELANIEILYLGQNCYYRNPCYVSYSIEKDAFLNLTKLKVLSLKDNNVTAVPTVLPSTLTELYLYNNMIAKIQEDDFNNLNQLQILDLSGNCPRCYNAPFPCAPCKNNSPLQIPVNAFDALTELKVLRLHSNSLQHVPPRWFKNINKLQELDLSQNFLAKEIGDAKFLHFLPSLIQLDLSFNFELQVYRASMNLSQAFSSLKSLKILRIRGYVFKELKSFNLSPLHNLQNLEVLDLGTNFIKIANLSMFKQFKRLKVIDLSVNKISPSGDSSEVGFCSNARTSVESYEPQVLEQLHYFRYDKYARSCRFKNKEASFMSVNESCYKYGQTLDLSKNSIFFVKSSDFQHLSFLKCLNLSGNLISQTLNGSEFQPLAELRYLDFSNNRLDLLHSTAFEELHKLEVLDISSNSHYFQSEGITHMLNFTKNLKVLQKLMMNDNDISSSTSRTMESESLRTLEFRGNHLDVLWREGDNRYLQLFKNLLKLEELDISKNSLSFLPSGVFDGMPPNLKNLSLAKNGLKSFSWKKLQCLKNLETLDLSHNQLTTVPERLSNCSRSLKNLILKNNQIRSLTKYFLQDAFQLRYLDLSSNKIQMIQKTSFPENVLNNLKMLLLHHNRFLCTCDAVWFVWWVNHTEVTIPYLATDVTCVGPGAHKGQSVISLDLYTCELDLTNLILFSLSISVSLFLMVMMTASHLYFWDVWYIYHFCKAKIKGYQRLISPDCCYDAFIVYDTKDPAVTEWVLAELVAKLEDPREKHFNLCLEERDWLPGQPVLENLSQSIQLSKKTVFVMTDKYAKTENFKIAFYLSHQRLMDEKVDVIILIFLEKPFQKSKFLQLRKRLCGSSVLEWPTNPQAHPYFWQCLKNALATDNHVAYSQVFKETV
# protocolSummary: Agonist activity at TLR7-mediated IFNalpha production in human PBMC assessed as minimum concentration of compound necessary to generate >3 fold of cytokine levels relative to control
experimentalEndpoint: MEC (nM)

Solved cases below.
IN: // MEC lookup, key: "CCCCOc1cc2c([nH]c(=O)c(=O)n2Cc2ccc(-c3ccc(CN4CCCC4)cc3)cc2)c(N)n1"
OUT: 10

IN: Param item: "CCCN(C)C(=O)c1nc(N)c2c(n1)N(Cc1cccc(CN3CCCC3)c1)CC(=O)N2"
OUT: 1000

IN: Do the same for "CCCCOc1nc(N)c2c(n1)N(Cc1ccc3c(c1)CN(C(C)C)CC3)CC(=O)N2" please
OUT: 3

IN: Request: "CCCCOc1nc(N)c2[nH]c(=O)c(=O)n(Cc3ccc(CN4CCCC4)cc3)c2n1"
OUT: 0.32

IN: Now the same for "COCCNc1nc(N)c2c(n1)N(Cc1cccc(CN3CCCC3)c1)CC(=O)N2"
OUT: 1000

[I] COCCOc1cc2c(c(N)n1)NC(=O)CN2Cc1ccc(CN2CCCC2)cc1
[II] Nc1nc(OCC2CCCCC2)nc2c1NC(=O)CN2Cc1cccc(CN2CCCC2)c1
[III] CCCCOc1nc(N)c2c(n1)N1Cc3cccc(CN4CCCC4)c3CC1C(=O)N2 (stereo not given)
IN: Hello, I need these entries ordered by MEC, highest reading first. Thanks! Quick reminder: the answer is the labels in the order asked.
OUT: II, III, I

---

# Organism: Homo sapiens
# protocolSummary: Selectivity ratio of MEC for TLR8-mediated TNFalpha production in human PBMC to MEC for TLR7-mediated IFNalpha production in human PBMC
experimentalEndpoint: Ratio

IN: Query (compound): "CCCN(C)C(=O)c1nc(N)c2c(n1)N(Cc1cccc(CN3CCCC3)c1)CC(=O)N2" ; field requested: Ratio
OUT: 10

IN: And for "CCCCOc1nc(N)c2[nH]c(=O)c(=O)n(Cc3ccc(CN4CCCC4)cc3)c2n1" ?
OUT: 10

IN: And for CCCCOc1nc(N)c2c(n1)N(Cc1ccc(CN3CCCC3)cc1)C(C)C(=O)N2 (stereo unspecified) ?
OUT: 30

IN: Further, for "COCCOc1nc(N)c2[nH]c(=O)c(=O)n(Cc3cccc(CN4CCCC4)c3)c2n1" ?
OUT: 3

IN: Try the compound "Nc1nc(OCC2CCOCC2)nc2c1NC(=O)CN2Cc1cccc(CN2CCCC2)c1"
OUT: 100

IN: Could you do the same for "COCCNc1nc(N)c2c(n1)N(Cc1cccc(CN3CCCC3)c1)CC(=O)N2" , please?
OUT: 10

IN: Next record, please: "CCCCOc1nc(N)c2c(n1)N(Cc1cccc(CN3CCCCC3)c1)CC(=O)N2"
OUT: 3.3

IN: Repeat with "CCCN(C)C(=O)c1nc(N)c2[nH]c(=O)c(=O)n(Cc3cccc(CN4CCCC4)c3)c2n1"
OUT: 10

[A] CCCCOc1nc(N)c2c(n1)N(Cc1ccc(-c3cccc(CN4CCCC4)c3)cc1)CC(=O)N2
[B] CCCCOc1nc(N)c2c(n1)N(Cc1cccc(CN3CCCC3)c1)C1(CC1)C(=O)N2
[C] CCC(CC)COc1nc(N)c2c(n1)N(Cc1cccc(CN3CCCC3)c1)CC(=O)N2
[D] CCCCOc1nc(N)c2c(n1)N(Cc1cccc(CN3CCCC3)c1)CC(=O)N2
[E] CCCCOc1nc(N)c2c(n1)N(Cc1ccccc1)CC(=O)N2
IN: Parameters: sort_field (Ratio), sort_dir (desc). Give the labels in the order requested.
OUT: D, C, A, B, E

[a] Nc1nc(OCCC2CC2)nc2c1NC(=O)CN2Cc1cccc(CN2CCCC2)c1
[b] CCCCOc1nc(N)c2c(n1)N(Cc1cccc(CN3CCCC3)c1)C(C)C(=O)N2 (stereo unspecified)
IN: Ratio comparison. Which is larger, a or b ? // respond with label for picked entry
OUT: b
(b: 30, a: 10)

---

# targetEntity: Toll-like receptor 7 (Homo sapiens)
# protocolSummary: Agonist activity at TLR7-mediated IFNalpha production in human PBMC assessed as minimum concentration of compound necessary to generate >3 fold of cytokine levels relative to control
experimentalEndpoint: MEC (nM)

IN: Reported MEC for "CCCCOc1nc(N)c2[nH]c(=O)c(=O)n(Cc3cccc(CN4CCCC4)c3)c2n1" : what is it?
OUT: 3

IN: Ok, now "CCCCOc1cc2c([nH]c(=O)c(=O)n2Cc2ccc(CN3CCCC3)cc2)c(N)n1"
OUT: 3

IN: Thanks! And "COCCOc1nc(N)c2c(n1)N(Cc1cccc(CN3CCCC3)c1)CC(=O)N2" ?
OUT: 10

IN: Similarly, CCCCOc1nc(N)c2c(n1)N(Cc1cccc(CN3CCCC3)c1)CC(=O)N2 [VESATOLIMOD] ?
OUT: 3

IN: How about "CCCCOc1nc(N)c2c(n1)N(Cc1ccc3c(c1)CCN(C(C)C)C3)CC(=O)N2" ?
OUT: 3

IN: Then "CCCCCc1nc(N)c2c(n1)N(Cc1cccc(CN3CCCC3)c1)CC(=O)N2" ?
OUT: 320

IN: Same thing, different compound: "CCCCSc1nc(N)c2c(n1)N(Cc1cccc(CN3CCCC3)c1)CC(=O)N2"
OUT: 100

IN: Input "CC(C)COc1nc(N)c2c(n1)N(Cc1cccc(CN3CCCC3)c1)CC(=O)N2"
OUT: 10000

IN: Same read-out for "CCCCOc1nc(N)c2c(n1)N(Cc1ccc(-c3cccc(CN4CCCC4)c3)cc1)CC(=O)N2" ?
OUT: 3

IN: Same question, "CCCCOc1nc(N)c2c(n1)N(Cc1cccc(CN3CCCCC3)c1)CC(=O)N2" this time
OUT: 30

[1] CCCCOc1cc2c([nH]c(=O)c(=O)n2Cc2ccc(-c3cccc(CN4CCCC4)c3)cc2)c(N)n1
[2] CCCCOc1nc(N)c2c(n1)N(Cc1cccc(CN3CCCC3)c1)C1(CC1)C(=O)N2
[3] CCCCOc1nc(N)c2c(n1)N(Cc1ccc(-c3ccc(CN4CCCC4)cc3)cc1)CC(=O)N2
[4] CCCCOc1nc(N)c2c(n1)N(Cc1ccccc1CN1CCCC1)CC(=O)N2
[5] CCCCOc1nc(N)c2c(n1)N(Cc1cccc(CN3CCOCC3)c1)CC(=O)N2
IN: rank_up(items): orders items by reported MEC in ascending numerical order. // rank by listing labels in the order requested
OUT: 3, 1, 4, 5, 2
(3: 3 nM, 1: 30 nM, 4: 100 nM, 5: 300 nM, 2: 1000 nM)

[I] CCCCNc1nc(N)c2[nH]c(=O)c(=O)n(Cc3cccc(CN4CCCC4)c3)c2n1
[II] COCCOc1nc(N)c2[nH]c(=O)c(=O)n(Cc3cccc(CN4CCCC4)c3)c2n1
[III] Nc1nc(OCCC2CC2)nc2c1NC(=O)CN2Cc1cccc(CN2CCCC2)c1
IN: Hello, I need these entries ordered by MEC, highest reading first. Thanks! Labels, requested order.
OUT: II, III, I

These entries and their values trace back to ChEMBL document CHEMBL2424598.
